system: K4 kissing-loop RNA reporter; test: apparent KD of K4 kissing-loop reporter; higher = weaker reporter binding; conditions: Eterna round: R107; input ligand: theophylline 20 uM;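 also: bound reporter read as fluorescence of individual clusters on recovered sequencing chips by microscopy, with normalized cluster intensities fitted with a binding model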
Recorded apparent KD of K4 kissing-loop reporter by entry
Reply with the number, then its unit.

Examples with answers:
Residue Sequence | apparent KD of K4 kissing-loop reporter
GGUAGCAUGGCGGCCGCCACUAAGAGAGUGAUGUUCUCUUAGUUUUUUGAUAUAUUAUCAAUUCUUAGGACCGGGCCAUGCUACC | 98.9 nM
CCAUUCUUUUACGAUACCAGUCUAAUAUAUUUAAUCAAAACCCUCGCCGAGUGAUGUUCGGACCCUUGGCAGCGUCUGCGAGAGG [ettyxtkmullin] | 603 nM

Q: If you can, please state the reported apparent KD of K4 kissing-loop reporter value of AAAUAUUGUUACCUGUUAACAUAGGGCCAACGAGGACCGGUACGGCCGCCACUCGUCUCAUAGCGAGUGAUGUUCGCACCGCCCA .
Result: 123 nM

Q: Consider the sequence GCCAUCUACUAAGGAUAUUAAGUCAAUAUUUGUGGUGCCAUCUGUCGUUCAGGGCAGUGAUGUUGCUAAGAAGGUAGUCUGUCGG [theeternabot_exclusion_KL_FMN_B_39] and give its measured apparent KD of K4 kissing-loop reporter.
Result: 593 nM

Q: Which apparent KD of K4 kissing-loop reporter reading was recorded for the sequence UGUCAUUGGUCGGCCGCCACUAAAUAAAAGAGUGAUGUUCUUAAGACGGAUCGAAAGAUCUGUCAUAGGACCGGGACCGAUGACU [TrypBS 21 #SwitchBubble #StaticStem] ?
Result: 888 nM

---

tested on: MS2 coat protein; experiment: apparent KD of MS2 coat protein; designed switch direction (-1 OFF switch, 1 ON switch): -1; higher = weaker reporter binding; conditions: Eterna round: R95; input ligand: microRNA oligo, concentration not stated
# if value of apparent KD of MS2 coat protein reaches 40 nM, tag satisfied; if it stays below, tag not satisfied

Residue Sequence | Classification
GGUGGACAUGAGGAUCACCCAUGUGAGGAUAUCGGCUGGCUAGUGGCGGCUGGCUUCUCGAGAAGGCGCAUAGU [Exclusion 1 V79] (puzzle: Exclusion 1) | satisfied
AUUAAGCAGCAGGAUAUAAGUAUCUGAUGGUGGUUAGAAGGGCUGACAUGAGGAUCACCCAUGUGCUCUUCGUG [Tieruseres] (puzzle: Exclusion 6) | not satisfied
UUAUACGUUGAGGAUAUGCGAAUUAGUAUAGUUGCAGAAGGCGAUACAUGAGGAUCACCCAUGUUCAUGGGCAU [LRO-Ex6-05] (puzzle: Exclusion 6) | satisfied
UUAAUGUGAGGAUAUCAGGUGUGCUAGAGUACUGGUACAUCUGAGAAGGCACAUGAGGAUCACCCAUGUUCUUC [Mat - Exclusion 4 - Mod of JL - D54] (puzzle: Exclusion 4) | not satisfied
AGAAAGCAAGGAUAUACAAGUAAACGACGGAAAGUAGAGAGACAUGAGGAUCACCCAUGUAGAAGGUGCGAGAG [JR_Exclu2_Sub034] (puzzle: Exclusion 2) | not satisfied
UUUUUGUGAGGAUAUCAGUAGUAAAAUAAAUAAAUUACUACUGAGAAGGCACAUGAGGAUCACCCAUGUUCCUU [Mat - Exclusion 4 - Mod of Salish - D66] (puzzle: Exclusion 4) | not satisfied
AGGUAACAUGAGGAUCACCCAUGUCAGGAUAUCAGUAAGAUGAGUAUAGAAGAGAGUAUGAGAAGGGACUAUAU [Excluse me! 25 - Jieux - Exclusion 1] (puzzle: Exclusion 1) | not satisfied
CUUUUGUGAGGAUAUCAGUAGUAAUAUAAUAGUAUUACUACUGAGAAGGCACAUGAGGAUCACCCAUGUUCCUC [Ex4 344 Omei mod 8] (puzzle: Exclusion 4) | not satisfied
AGUAGAUCUACGCUUGCGUGGAUCUGCUAGGCAGGUGUUACAUGAGGAUCACCCAUGUCCUCAUUUGUUCGUCUUAU [JL turnoff v2 99.17] (puzzle: Sensor v3, turn-off variant 2) | satisfied

Q: Say whether UUUUAACAUGAGGAUCACCCAUGUGAGGAUAUCGAAAUUUAUAUUAAUAUUUAUAAAACGAGAAGGCACAUUUU [JMF 51] (puzzle: Exclusion 1) shows apparent KD of MS2 coat protein of 40 nM or more.
Result: satisfied

---

test system: MS2 coat protein; experiment: apparent KD of MS2 coat protein; designed switch direction (-1 OFF switch, 1 ON switch): -1; higher = weaker reporter binding; conditions: Eterna round: R95; input ligand: microRNA oligo, concentration not stated
Record criterion met whenever apparent KD of MS2 coat protein is at 0.03 µM or higher; record criterion not met when lower.

Residue Sequence | Classification
CGGUGCUGAGGAUAUACAUGAGGAUCACCCAUGUGUGCCAGCUAGCUGACUGGCGCUUGUAGAAGGCAGUACUG [JL-ex3-2.12 Brourd mod] (puzzle: Exclusion 3) | criterion not met

Q: # check: apparent KD of MS2 coat protein of CUCAAACAUGAGGAUCACCCAUGUGAGGAUAUGAUGCGAUCGUCGAAAGACGAUAGCAUCAGAAGGUACAAAUG [Fiskers Ex 1 - 23] (puzzle: Exclusion 1) is greater than or equal to 0.03 µM
Result: criterion met

Q: Quick check: does AGAGUGUGAGGAUAUAUGGUGCAGAUGAAGGGAUAGAAGGAGUAGAAGGUACAUGAGGAUCACCCAUGUUAGGA [JR_Exclu4_Sub077] (puzzle: Exclusion 4) have apparent KD of MS2 coat protein greater than or equal to 0.03 µM?
Result: criterion not met

Q: Exam item: decide whether the reported apparent KD of MS2 coat protein for GAUUGACAUGAGGAUCACCCAUGUGAGGAUAUCGGCUGGACCGUGUUGGCUUCGGUUUCGAGAAGGCGCAUAGG [Exclusion 1 V45] (puzzle: Exclusion 1) is at least 0.03 µM.
Result: criterion met

---

system: MS2 coat protein; test: apparent KD of MS2 coat protein; designed switch direction (-1 OFF switch, 1 ON switch): -1; higher = weaker reporter binding; settings: Eterna round: R95; input ligand: microRNA oligo, concentration not stated
Recorded apparent KD of MS2 coat protein, one value per entry.
Please give the number followed by its unit.

Residue Sequence | apparent KD of MS2 coat protein
UAUUAGCUAGGAUAUACAUGAGGAUCACCCAUGUCACGGGUCAACUUGUCCUAUGCGUGUAGAAGGAGCGACCC [JL Ceriza mod 5] (puzzle: Exclusion 3) | 18.8 nM
GCGAAAGCAACAAGUGAAAACAUGAGGAUCACCCAUGUCCUCAUUUGCUCGUCUUAUAAGCUAUGCGAAAGCAUAGC [Sensor 3, v1 - 10] (puzzle: Sensor v3, turn-off variant 1) | 511 nM
GAAAAGGUAGGAUAUACGAAAAAAAAGGGUAGAUAAAAAACACAUGAGGAUCACCCAUGUAGAAGGACCAAAAG [salish99_ex2_r3_078] (puzzle: Exclusion 2) | 41.8 nM
GAAGCACAUGAGGAUCACCCAUGUGAGGAUAUCCGUCUGGUCCGGCCGGGCCAGUACCGGAGAAGGCGCGUCGA [Excls1-Va] (puzzle: Exclusion 1) | 27.6 nM

The record that follows has no apparent KD of MS2 coat protein shown yet.
Q: Name the recorded apparent KD of MS2 coat protein for GUCACUAGAGGAUAUACAAUGGUAUAUGAUCCUAGAGACAAACAUGAGGAUCACCCAUGUAGAAGGCUAGUAUU [Exclusion 2 - 4] (puzzle: Exclusion 2) .
Result: 93.4 nM

---

system: MS2 coat protein; assay: apparent KD of MS2 coat protein; designed switch direction (-1 OFF switch, 1 ON switch): -1; higher = weaker reporter binding; settings: input ligand: FMN 200 uM
Value Type: apparent KD of MS2 coat protein (nM)
Give just the number in nM; leave the unit off.

// solved cases for apparent KD of MS2 coat protein follow
Residue Sequence | Assayed Target | Value Type | Scale Unit | Value Observed
GUUUAGUGAGGAUAUGUGGCUUCGAUCGUGAGAUCGAGGCUACAGAAGGCACAUGAGGAUCACCCAUGUUCCUC [salish99_ex4_r4_104] (Eterna round: R97, puzzle: Exclusion 4) | MS2 coat protein | apparent KD of MS2 coat protein | nM | 516
AUUCCUCCUGUGAGGAUAUGCGUUACGCACCCGUCGCAGAAGGCACAUGAGGAUCACCCAUGUGAGUUACCAAU [BmEX4 A.11] (Eterna round: R97, puzzle: Brourd's mod of Exclusion 4) | MS2 coat protein | apparent KD of MS2 coat protein | nM | 166
CUCAUUAGUCAGGAUAUCGUGUGGGUAAUUGUACGAGAAGGGACGACAUGAGGAUCACCCAUGUGGUCUUUGGG [JR_Ex6_Sub085] (Eterna round: R97, puzzle: Exclusion 6) | MS2 coat protein | apparent KD of MS2 coat protein | nM | 70.6

Q: # input sequence: ACGCAUUGCCUUUGGUAGUGCGUAACAUGAGGAUCACCCAUGUAGGAUAUGGUAGGCUUUGCUUACCAGAAGGACAUAAUAAUU [JL ENG3 1.01] (Eterna round: R96, puzzle: Exclusion NG 3) ; wanted: its apparent KD of MS2 coat protein
Result: 54.1
